Source: PubChem BioAssay (NCI)

# Test system: T-47D breast
# TEST SUMMARY: NCI tumour cell line growth inhibition, 48 h
Below, each of the compounds is paired with its reported TGI value.
Write down the numeric answer in µM and omit the unit.

Recorded results for 3 compounds are shown here.
COMPOUND: CCCCCCCC/C=C1\CCC(CN2CCOCC2)C1=O (configuration not stated)
ENDPOINT VALUE: 4.57
--
COMPOUND: CN(C)CCCC1(c2ccc(F)cc2)OCc2cc(-c3cc4ccccc4s3)ccc21 (configuration not stated)
ENDPOINT VALUE: 3.75
--
COMPOUND: COC1=CC(c2ccc[nH]2)=N/C1=C\c1[nH]c(C)c(CC(=O)OCc2ccccc2)c1C
ENDPOINT VALUE: 1.08

Provide value of TGI for this record tested with T-47D breast: CCOC(=O)/C=C(\C(=O)OCC)n1cc(Cl)c(=O)n(CC(=O)OCC)c1=O
4.12

What reported TGI corresponds to COc1cc(C(=O)O[C@H](C(=O)NCCN(C)CCNC(=O)[C@@H](OC(=O)c2cc(OC)cc3c(C)cccc23)[C@]2(C)CO2)[C@]2(C)CO2)c2cccc(C)c2c1 on T-47D breast?
1.7

Give TGI (T-47D breast) of the following compound: NC(N)=NC(N)=NCCCc1ccco1
319

What TGI appears in the records for this compound with T-47D breast? ClCc1ccccc1Cn1cnc2c(Cl)ncnc21
62

Identify the measured TGI of COC(=O)CCNc1c2ccccc2nc2cccc([N+](=O)[O-])c12 for T-47D breast.
0.466

Under T-47D breast: TGI value of Cn1nc(C(F)(F)F)c(-c2cc(C(F)(F)F)cc(C(F)(F)F)c2)c1-c1ccc(OCc2ccc(Cl)cc2)cc1O ?
8.4

# get_value(readout= TGI, system= T-47D breast) for O=C(/C=C1\C(=O)N(Cc2ccccc2)c2ccccc21)c1ccc(OCCN2CCCCC2)cc1
3.4

For T-47D breast, provide TGI of COC(=O)[C@]1(c2cc3ccccc3[nH]2)CC2CN(C(=O)OCc3ccccc3)C1CC2=O (some centres not stated) please.
76.2

----------
# Tested on: TK-10 renal
# TEST SUMMARY: NCI tumour cell line growth inhibition, 48 h
Reported TGI values are given for each entry in this list.

Use these answered entries as a reference point.
COMPOUND: CCOC1NC(=O)Oc2cc3ccccc3cc21 (stereo not given)
TESTED SYSTEM: TK-10 renal
ENDPOINT VALUE: > 100 µM
//
COMPOUND: COC(=O)c1c2c(c(C)[n+]([O-])c1C)C(=O)C=C(NCc1cccc(Cl)c1)C2=O
TESTED SYSTEM: TK-10 renal
ENDPOINT VALUE: 6.52 µM
//
COMPOUND: COC(=O)c1ccccc1/C=C1\Cc2ccc3c(c2C1=O)CCCC3
TESTED SYSTEM: TK-10 renal
ENDPOINT VALUE: > 100 µM
//
COMPOUND: O=[N+]([O-])c1cc(F)ccc1S(=O)(=O)c1ccccc1
TESTED SYSTEM: TK-10 renal
ENDPOINT VALUE: > 10 µM
//
COMPOUND: O=C(N/N=C\c1cccc2ccccc12)Nc1cccc2ccccc12
TESTED SYSTEM: TK-10 renal
ENDPOINT VALUE: 56.5 µM

# get_value(readout='TGI', item= O=C(OC1CN2CCC1CC2)N(c1ccccc1)c1ccccc1 (stereo not given) )
> 100 µM

Value lookup for TGI; key = C=CCC1(C(=O)OC(C)(C)C)C(OC)=C(C(=O)OC(C)(C)C)C2C1C(C(=O)OC(C)(C)C)=C(OC)C2(CC=C)C(=O)OC(C)(C)C (stereo not given)
> 100 µM

I would be grateful if you could share the reported TGI for CC(=O)C(C(C)=O)[C@@H]1OC(C)(C)O[C@@H]1[C@H]1COC(C)(C)O1 .
> 100 µM

Return reported TGI; argument: O=P(Nc1ccccc1)(Oc1ccccc1)N(CCCl)CCCl (stereo not given)
> 100 µM

// lookup TGI for COC1CCC(OC)C(C2(C3CC(OC)CCC3OC)OC(=O)c3ccccc32)C1 (stereo not given)
> 100 µM
